- target-or-system: RNase H of HBV polymerase (HBV-RNase H) (Hepatitis B virus ayw/France/Tiollais/1979, UniProt P03156)
- Construct: amylose/maltose step implies MBP fusion
- Sequence (P03156 680-832): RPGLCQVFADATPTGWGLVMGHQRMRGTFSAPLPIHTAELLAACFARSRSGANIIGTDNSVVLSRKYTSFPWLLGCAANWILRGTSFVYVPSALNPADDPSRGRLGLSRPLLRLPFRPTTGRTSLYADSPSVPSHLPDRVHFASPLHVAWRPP
- assay-explanation: inhibitory effects against RNase H activity of HBV polymerase
- Type: biochemical
- condition-set: 1 μg/ml; read-out: Inhibitory effect of HBV-RNase H
- Procedure: Experiment 2: The inhibitory effects against RNase H activity of HBV polymerase. 1) Expression of the RNase H domain derived from human HBV polymerase […] The RNase H activity was measured by using recombinant RNase H enzyme and radiolabled RNA/DNA hybrid. […] The supernatant was obtained and the radioactive signal of supernatant was measured by scintillation counter. […]
# inhibition at 1 µg/mL >= 80% gives label 1, anything below gives label 0

Ask: inhibition at 1 µg/mL >= 80% for CC(C)Nc1cccnc1N1CCN(C(=O)c2ccc(C(=O)N3CCN(CC(O)CO)CC3)cc2)CC1 (stereo not drawn) ?
Reply: label 1

Ask: Can `CC(C)Nc1cccnc1N1CCN(C(=O)c2ccc(C(=O)N3CCN(CCO)CC3)cc2)CC1` be said to have inhibition at 1 µg/mL at or above 80%?
Reply: label 1

Ask: Could you tell me if the measured inhibition at 1 µg/mL of `CC(C)Nc1cccnc1N1CCN(C(=O)c2ccc(C(=O)N3CCNCC3)cc2)CC1` reaches 80% or more?
Reply: label 0

Ask: Hello, I need to know if `CCN(CCO)C(=O)c1ccc(C(=O)N2CCN(c3ncccc3NC(C)C)CC2)cc1` has measured inhibition at 1 µg/mL not below 80%. Thanks!
Reply: label 1

Ask: State whether the measured inhibition at 1 µg/mL reaches 80%, counting equality as reaching it, for `CC(C)Nc1cccnc1N1CCN(C(=O)c2ccc(C(=O)N(C)CC3OCCO3)cc2)CC1`
Reply: label 0

Ask: Textbook exercise: given the entry `CC(C)Nc1cccnc1N1CCN(C(=O)c2ccc(C(=O)NC(CO)CO)cc2)CC1` , state whether its inhibition at 1 µg/mL is greater than or equal to 80%.
Reply: label 0

Ask: // inclusive: inhibition at 1 µg/mL at least 80%? input: `CC(C)Nc1cccnc1N1CCN(C(=O)c2ccc(C(=O)N(CCO)CCO)cc2)CC1`
Reply: label 1
